# Target or test system: HCV E1E2 antigen, isolate UKN6.5.8 (hepatitis C virus, isolate UKN6.5.8)
# Assay overview: ELISA, Fab on E1E2 antigen
Please provide measured OD 450 nm for the entries that follow.
The reply should read as a number followed by its unit.

>>> reported("Fab N1 (Fab, V domains shown) VH: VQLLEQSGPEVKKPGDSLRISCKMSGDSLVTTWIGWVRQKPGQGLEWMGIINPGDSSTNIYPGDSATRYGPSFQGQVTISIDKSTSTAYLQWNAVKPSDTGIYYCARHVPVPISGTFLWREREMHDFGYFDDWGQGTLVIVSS VL: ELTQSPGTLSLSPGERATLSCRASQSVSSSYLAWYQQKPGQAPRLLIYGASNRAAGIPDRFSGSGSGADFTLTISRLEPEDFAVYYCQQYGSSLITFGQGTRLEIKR")
"0.29 OD 450 nm"

Now look at this entry.
Which OD 450 nm value is on record for Fab N2 (Fab, V domains shown) VH: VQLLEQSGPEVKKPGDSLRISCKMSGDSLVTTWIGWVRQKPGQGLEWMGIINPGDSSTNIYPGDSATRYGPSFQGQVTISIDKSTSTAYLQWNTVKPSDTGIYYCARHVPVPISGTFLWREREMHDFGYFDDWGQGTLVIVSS VL: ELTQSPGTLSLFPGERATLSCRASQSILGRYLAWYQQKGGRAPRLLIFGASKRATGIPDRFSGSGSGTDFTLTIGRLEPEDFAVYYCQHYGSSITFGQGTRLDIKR ?
0.4 OD 450 nm
